The measured values listed here are drawn from paper PMC10786269.

TEST SYSTEM: Polyphosphate kinase-1 (PPK-1, Rv2984) (Mycobacterium tuberculosis, UniProt P9WHV9)
Sequence (P9WHV9 1-742): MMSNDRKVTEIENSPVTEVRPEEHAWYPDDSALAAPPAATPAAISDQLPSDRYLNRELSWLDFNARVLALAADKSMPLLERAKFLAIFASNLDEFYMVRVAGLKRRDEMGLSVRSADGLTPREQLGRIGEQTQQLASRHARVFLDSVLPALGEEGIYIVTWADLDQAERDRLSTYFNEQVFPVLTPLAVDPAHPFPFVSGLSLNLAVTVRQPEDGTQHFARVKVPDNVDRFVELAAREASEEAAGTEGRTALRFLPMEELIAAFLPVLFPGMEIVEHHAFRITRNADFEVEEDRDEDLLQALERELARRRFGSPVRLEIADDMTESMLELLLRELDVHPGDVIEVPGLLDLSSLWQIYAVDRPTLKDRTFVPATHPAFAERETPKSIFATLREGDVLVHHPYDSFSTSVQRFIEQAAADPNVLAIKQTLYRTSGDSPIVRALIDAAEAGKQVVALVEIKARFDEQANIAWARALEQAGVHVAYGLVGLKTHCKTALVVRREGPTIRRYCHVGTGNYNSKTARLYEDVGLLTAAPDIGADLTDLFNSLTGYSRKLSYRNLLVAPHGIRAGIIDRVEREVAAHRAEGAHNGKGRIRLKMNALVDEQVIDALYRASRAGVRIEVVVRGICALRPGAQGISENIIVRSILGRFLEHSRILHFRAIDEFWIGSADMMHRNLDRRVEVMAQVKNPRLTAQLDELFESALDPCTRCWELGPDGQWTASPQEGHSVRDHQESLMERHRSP
Where a name gives a salt, the structure may show the parent alone.
MEASURE NAME: pKd
Lab note: report pKd as minus log10 of the concentration in molar units, number only.

So, O=C(c1ccc(OCCN2CCCCC2)cc1)c1c(-c2ccc(O)cc2)sc2cc(O)ccc12 [Cpd-11, raloxifene hydrochloride] ? Its pKd was 4.40
